Values compiled from PubChem BioAssay (NCI).

tested on: K-562 leukemia; experiment: NCI tumour cell line growth inhibition, 48 h; in the data active = GI50 below about 0.43 µM; inactive = the rest
Outcomes you can answer with include only these: yes for active, no for inactive

Prompt line: Hi, sorry to bother you, what did the test record for COc1ccc(-c2nsc3c2NC(=O)CC3c2cccc(F)c2)cc1 (centres undefined) ?
Response line: no

Prompt line: Each compound tested received a call. Report the one for COC1/C=C/OC2(C)Oc3c(C)c(O)c4c(O)c(c(/C=N/N(c5ccccc5)c5ccccc5)c(O)c4c3C2=O)NC(=O)C(C)=C/C=C/C(C)C(O)C(C)C(O)C(C)C(OC(C)=O)C1C (centres undefined) .
Response line: no

Prompt line: I would be grateful if you could indicate the recorded call for "N#Cc1ccc(C(=O)c2cnn(-c3ccc(F)cc3)c2N)cc1" .
Response line: no

Prompt line: Write down the call the test reported for this compound. Item: "CCN(CC)CCNc1ccc(N=Nc2cnc3ccccc3c2)c2ccccc12"
Response line: no

Prompt line: Each compound tested received a call. Report the one for "Cn1c2ccccc2c2c(=O)n(CCCC(=O)NCCc3cnc[nH]3)c3c(-c4ccccc4)nnn3c21" .
Response line: no

Continuing:
Prompt line: So what was the verdict on "Cc1cc2oc(=O)cc(OC/C=C3/CCC(=O)O3)c2cc1C" in this test?
Response line: no

Prompt line: Could you kindly confirm the outcome this assay logged for "Cc1cc(C(=O)CC(Cl)=C(Cl)Cl)c(Cl)cc1Cl" ?
Response line: no

Prompt line: Each compound tested received a call. Report the one for "COc1ccc2[nH]cc(C3(c4c[nH]c5ccc(OC)cc45)C(=O)Nc4ccc(Cl)cc43)c2c1" .
Response line: no

Prompt line: Dear all, I need the recorded test outcome for "COc1ccc(C(=O)/C=C/c2c(C(F)(F)F)nc3ccccn23)cc1OC" , thank you.
Response line: yes

Prompt line: Look up the recorded call for "Cc1ccc2c(c1)C(=O)/C(=C/c1cccc(OCC(=O)c3ccc(Cl)cc3)c1)CS2" in this test.
Response line: no

Prompt line: I would be grateful if you could indicate the recorded call for "Cc1c(C(=O)/C=C/c2ccc(Cl)cc2)nnn1-c1ccnc2c(C(F)(F)F)cccc12" .
Response line: no

Prompt line: Which outcome was assigned to "NS(=O)(=O)c1ccc(-n2nc(-c3ccccc3)cc2-c2cc(O)ccc2O)cc1" in this test?
Response line: no

Prompt line: Please share the test call associated with "CN(C)C[C@@H]1CCn2cc(c3ccccc32)C2=C(C(=O)NC2=O)c2cn(c3ccccc23)CCO1" .
Response line: no

Prompt line: Outcome? "COc1ccc(Cl)cc1Nc1nc(C(F)(F)F)ccc1C(=O)N/N=C/c1ccccc1Cl"
Response line: no

Prompt line: How did this test come out for "CCCn1cc(/C=N\N=C2\C(=O)Nc3ccc(C)cc32)c2ccccc21" ?
Response line: no

Prompt line: Name the outcome recorded for "COc1cc2c(cc1OC)-c1c(c3ccc([N+](=O)[O-])cc3c(=O)n1CCCN=[N+]=[N-])C2=O" in the assay.
Response line: no

Prompt line: Short answer needed: outcome of this test for "CN(CO)c1nc(N(C)CO)nc(N(C)CO)n1" ?
Response line: no

Prompt line: Please state the recorded outcome for this compound: CCOP(=O)(OCC)C(NC(c1ccccc1)c1ccccc1)c1ccsc1 (centres undefined)
Response line: no

Prompt line: Lab log entry: "C#Cc1cccc(Nc2ncnc3ccc(-c4cnc(N)nc4)cc23)c1" — outcome as called in the assay?
Response line: no
